// data source = PubChem BioAssay (NCI)

- System: 786-0 renal
- Assay comment: NCI-60 one-dose screen, 48 h (100 = growth as untreated, 0 = no growth, -100 = all killed)
- Condition description: 10 µM unless noted
About 83,000 compounds went through this panel and 20% of them were active in at least one assay; those are over-represented in the sample as a whole.
Exercise: state measured growth for each of the compounds provided.
Note: unit % is implicit; provide only the numeric part.

Reported growth of `O=C1NCN(c2ccccc2)C12CCN(CCCC(c1ccc(F)cc1)c1ccc(F)cc1)CC2` : 49.2

Record `COc1cc2c(cc1OCCCCCn1c(-c3ccc(OCc4ccccc4)cc3)nc3cc(N4CCOCC4)ccc31)N=C[C@@H]1CCCN1C2=O` . Reported growth: -22.5

Record `COc1cc(/C=C/C(=O)Nc2ccc3c(c2)/C(=C\c2cccn2C)C(=O)N3)cc(OC)c1OC` , field growth: 54.8

The recorded growth for `CCn1c2ccccc2c2ccc(C(C)=O)cc21` is 102

# compound `CC(C)(C)c1ccc(S(=O)(=O)O)s1` ; its growth = 95.6

====

- System: ACHN renal
- Assay comment: NCI-60 one-dose screen, 48 h (100 = growth as untreated, 0 = no growth, -100 = all killed)
- Condition description: 10 µM unless noted
This is part of a sample that, as a whole, favours compounds with a hit. Of some 83,000 tested, about 20% had one in any assay.
Please go through the items and note down their growth.
# value in %; strip the unit string

The compound listed as `c1ccc2cc(C[n+]3ccn(CCCCCCCn4cc[n+](Cc5ccc6ccccc6c5)c4)c3)ccc2c1` has a reported growth of 60.2

Just so you know, measured growth for `O=C(/C=C/c1ccccc1Cl)c1ccc(O)cc1` came out at 78.9

Notebook: `COc1ccc2nc3cc(Cl)ccc3c(N3CCN(c4ccnc(Nc5ccc(F)cc5)n4)CC3)c2c1` , growth read as 62.5

The reported value for `C=C(C[C@](O)(C(=O)/C=C/c1ccc(Cl)cc1)C(=O)OC)c1ccccc1` in terms of growth is 72.2

Entry `CN1C(=O)C(=Cc2cn(Cc3ccccc3)c3ccc(Br)cc23)C(=O)N(C)C1=O` , growth reported as 96.3

Looking up `O=C(Nc1ccc(Cl)cc1)Nc1ccc(Nc2nncc3ccccc23)cc1` , I found its growth recorded as 22.4

growth for `COc1ccc2c(c1)nc(N)c1c3ccccc3cn21` is 81.1

Looking up `C/C(=N/N=C(N)N)c1ccc(N)cc1` , I see its growth listed as 102

Documented growth of `CC[N+](CC)(CCOCCOCC[N+](CC)(CC)Cc1ccc([N+](=O)[O-])cc1)Cc1ccc([N+](=O)[O-])cc1` : 102

Given item `CCC[C@H](N[C@@H](C)C(=O)N1[C@H](C(=O)O)C[C@@H]2CCCC[C@@H]21)C(=O)OCC` , the value recorded as its growth is 90.8

growth reading for `Cc1nn(-c2ccc(Cl)cc2)c2nc3c(nc12)c(=O)oc1ccccc13` : 99.8

Consider `O=C(/C=C/c1cc2ccccc2[nH]c1=O)c1ccc(Cl)cc1` . Its measured growth is 51.6

Entry CCOC(=O)C1=C(C)N2C(=NC3=C(CCC/C3=C\c3ccc(Cl)cc3)C2c2ccc(Cl)cc2)S1 (configuration not stated) ; growth = 16.6

Query `c1ccc(N2CCN(c3nncc4ccccc34)CC2)nc1` yields growth of 115

For record `O=C(Nc1ncc([N+](=O)[O-])s1)c1cccc([N+](=O)[O-])c1` the listed growth is 59

// recorded growth for `CCCC[N+](CCCC)=c1ccc2nc3c(C)cc(N(CC)CC)cc3sc-2c1` : -34.1

Reported growth of `O=C(Nc1cccc(-n2cc(-c3ccncc3)c(-c3ccc(O)c(Cl)c3)n2)c1)Nc1ccc(Cl)c(C(F)(F)F)c1` : 10.7

growth reported for this compound `COc1ccc(-c2cc(Cc3cccs3)c(=O)n(Cn3cncn3)n2)cc1` : 97.6

The recorded growth for entry `COC(=O)[C@]12CC[C@@H](C)[C@H](C)[C@@H]1C1=CC[C@@H]3[C@@]4(C)C[C@@H](OC(=O)c5ccco5)[C@H](O)[C@@](C)(CO)[C@@H]4[C@H](O)C[C@@]3(C)[C@]1(C)CC2` equals -95

// growth value for `O=[N+]([O-])c1ccc2c(c1)S(=O)c1cc([N+](=O)[O-])ccc1N2` : 96.7

growth in this record for `CCS(=O)(=O)OCCCl` : 99.3

Record `CCOc1nc(-c2ccccc2)cc2c(O)c(-c3nnco3)[nH]c(=O)c12` , field growth: 52.3

Sample `COc1ccc(/C(=C2\O[C@@H]([C@H](O)CO)[C@H]3OC(C)(C)O[C@@H]23)c2cc(OC)c(OC)c(OC)c2)cc1O` ; growth observed: 78.5

Just so you know, measured growth for `Oc1ccc(-c2nn(-c3ccccc3)cc2-c2nc3ccccc3s2)cc1` came out at 91.1

Sample `CN(C)c1cccc2c(S(=O)(=O)N[C@H]3CC[C@H]4[C@@H]5CCc6cc(O)ccc6[C@H]5CC[C@]34C)cccc12` ; growth observed: 30.8

The value of growth measured for the compound `C[n+]1c2ccccc2c(Nc2ccc(N3CCCCC3)cc2)c2[nH]c3ccccc3c21` turned out to be -96.2

Reported growth ( `C[C@]12CC[C@@H]3c4ccc(O)c([N+](=O)[O-])c4CC[C@H]3[C@@H]1CC[C@@H]2NS(=O)(=O)c1cccc(Br)c1` ) = 24.4
